// TGI lookup, one value per entry
# Test system: RXF 393 renal
# Assay overview: NCI tumour cell line growth inhibition, 48 h

| Structure notation | TGI |
| --- | --- |
| COc1cc([C@@H]2c3cc4c(cc3[C@@H](Nc3ccc(NC(=O)c5cc([N+](=O)[O-])cn5C)cc3)[C@H]3COC(=O)[C@H]23)OCO4)cc(OC)c1O | > 100 µM |
| N#Cc1sc2nc3ccccc3n2c1N | 67.6 µM |
| O=C(CSCC(=O)N/N=C/c1cccc(O)c1)N/N=C/c1cccc(O)c1 | > 100 µM |
| COc1ccc(-c2[nH]c3ccc(OC)cc3c2C=C(C#N)C#N)cc1 | > 100 µM |
| O=C(O)CN(CCN(CC(=O)O)CC(=O)O)CC(=O)O.[Mn+2] | > 100 µM |

---

# System: U251 CNS
# Assay overview: NCI tumour cell line growth inhibition, 48 h
// TGI lookup, one value per entry

| Compound | TGI |
| --- | --- |
| C[C@H](C(=O)O)C(=O)NC(=O)N(Cc1ccccc1)N=O | > 100 µM |
| C[C@@H]1CC[C@]2(C)C3(C)CC[C@]2(OC3=O)[C@@]12CC(c1ccoc1)OC2=O (stereo not given in full) | > 100 µM |
| COC(=O)[C@@]12OC[C@]34C([C@@H](O)C1O)[C@@]1(C)CC(=O)C(OC(=O)CC(C)C(F)(F)F)=C(C)C1C[C@H]3OC(=O)[C@H](O)[C@H]42 (stereo not given in full) | > 62.5 µM |
| N#Cc1ccccc1OCCOc1ccccc1C#N | > 100 µM |
| O=C(CSCC(=O)N/N=C/c1cccc(O)c1)N/N=C/c1cccc(O)c1 | > 100 µM |

---

# Tested on: NCI-H460 lung
Classes used: 1 for active, -1 for inactive

| Compound | Class name |
| --- | --- |
| CNCc1ccc(-c2cc(-c3nc(-c4ccc(S(=O)(=O)C(C)C)cc4)cnc3N)on2)cc1 | 1 |
| COCCN(Cc1ccc(F)cc1)c1ccc(CO)c(Cl)c1 | -1 |
| Fc1ccc(NC(c2ccc(F)cc2)C2CCN(CCCCc3ccccc3)CC2)cc1 (centres undefined) | -1 |
| CN(C)c1ccc(-c2cc(-c3ccc(Nc4nc(Nc5ccc(Cl)cc5)nc(Nc5ccc(Cl)cc5)n4)cc3)nc(N)c2C#N)cc1 | -1 |
| CC(=O)NC1C(O[C@H]2C[C@H]3[C@@H]4CC=C5C[C@@H](O)CC[C@]5(C)[C@H]4CC[C@]3(C)[C@H]2[C@H](C)C(=O)CCC(C)C)OCC(O)C1O (some centres undefined) | -1 |
| [O]=[V]([OH])([OH])[OH] | -1 |
| C#Cc1ccc(-n2c(/C=C/c3ccc(O)cc3)nc3ncccc3c2=O)cc1 | -1 |
| S=C1SCN(Cc2ccccc2)CN1Cc1ccco1 | -1 |
| CN1CCN(c2c(F)cc(NC3=C(Cl)C(=O)c4ncccc4C3=O)cc2F)CC1 | -1 |

---

# Test system: LOX IMVI melanoma
# Assay overview: NCI tumour cell line growth inhibition, 48 h
Assay readout: TGI

| Molecule | Study system | Assay readout | Value measured |
| --- | --- | --- | --- |
| COc1cc(/C=C2\NC(=O)C(Cc3cc(OC)c(OC)c(C)c3OC)N(C(C)=O)C2=O)c(OC)c(C)c1OC (stereo not given) | LOX IMVI melanoma | TGI | > 100 µM |
| CN(C)c1ccc(-c2cc(-c3ccc(Nc4nc(Nc5ccc(Cl)cc5)nc(Nc5ccc(Cl)cc5)n4)cc3)nc(N)c2C#N)cc1 | LOX IMVI melanoma | TGI | > 100 µM |
| COC1(OC)c2occc2C(=N)c2ccc(=O)oc21 | LOX IMVI melanoma | TGI | > 100 µM |
| CCOC(=O)c1c(NC(=O)c2ccccc2)c(C#N)c2n1CCCCC2 | LOX IMVI melanoma | TGI | > 100 µM |
| OCCCCC#Cc1ccccc1C#Cc1cccc(C(F)(F)F)c1 | LOX IMVI melanoma | TGI | 31.8 µM |

---

# System: NCI-H226 lung
# Assay overview: NCI tumour cell line growth inhibition, 48 h
// GI50 lookup, one value per entry

| Compound | Study system | GI50 |
| --- | --- | --- |
| Fc1ccc(NC(c2ccc(F)cc2)C2CCN(CCCCc3ccccc3)CC2)cc1 (centres undefined) | NCI-H226 lung | 1780 nM |
| CCSCC1CC(O)(c2ccccc2)C(c2ccccc2)C(c2ccc(F)cc2)O1 (centres undefined) | NCI-H226 lung | 1970 nM |
| O=C(Nc1ccc(OC(F)(F)Cl)cc1)c1cnc(N2CC[C@@H](O)C2)c(-c2ccn[nH]2)c1 | NCI-H226 lung | 11800 nM |
| COc1ccc(-c2cc(/C=C/C(=O)c3ccc(N)cc3)[nH]n2)cc1OC | NCI-H226 lung | 2320 nM |

---

// TGI lookup, one value per entry
# Tested on: MDA-MB-231 breast
# Assay overview: NCI tumour cell line growth inhibition, 48 h
Assay readout: TGI (µM)

| Structure notation | Study system | Assay readout | Readout units | Result operator | Value measured |
| --- | --- | --- | --- | --- | --- |
| COc1ccc(/C(Nc2ccccc2)=C(\CCl)c2ccccc2)cc1OC | MDA-MB-231 breast | TGI | µM | > | 100 |
| Clc1ccc(C=Nc2ccc(Oc3ccc(Cl)cc3)c(Cl)c2)cc1 | MDA-MB-231 breast | TGI | µM | = | 47.9 |
| CCCCCCCCCCCCCCNC(=O)Nc1ccc(Cl)c(Cl)c1 | MDA-MB-231 breast | TGI | µM | = | 7.64 |
| Cc1ccc(N=N/C(=N/NC(=O)c2ccccc2)c2ccc(N(CCC#N)CCC#N)cc2C)cc1 | MDA-MB-231 breast | TGI | µM | > | 100 |
| O=c1c(-c2ccccc2)nnc2n(Cc3ccccc3)c3ccccc3n12 | MDA-MB-231 breast | TGI | µM | > | 100 |
| CCOC(=O)/C(=C\c1cccc(C)c1)C(C)=O | MDA-MB-231 breast | TGI | µM | = | 28.9 |

---

# System: KM20L2 colon
# Assay overview: NCI tumour cell line growth inhibition, 48 h
// TGI lookup, one value per entry
Assay readout: TGI (µM)

| Compound | Assay readout | Readout units | Result operator | Value measured |
| --- | --- | --- | --- | --- |
| CCOC(=O)/C(=C/c1ccccn1)C(=O)c1ccccc1 | TGI | µM | = | 51.6 |
| O=NN(CCCl)C(=O)NC1CCC(CC(=O)O)CC1 (stereo not given) | TGI | µM | > | 100 |
| C=C(C#N)C(=O)OCC(CC)CC.C=C(C#N)C(=O)OCC(CC)CC.CS(C)=O.CS(C)=O.Nc1c(N=Nc2ccc(-c3ccc(N=Nc4cc(S(=O)(=O)[O-])c5ccccc5c4N)cc3)cc2)cc(S(=O)(=O)[O-])c2ccccc12.[Pt+2] | TGI | µM | > | 100 |
| O=C1N[C@@H]2CCCC[C@@H]2C12CCCCC2 | TGI | µM | > | 100 |
| COc1ccc2c(C(=O)O)cc3ccccc3c2c1OC | TGI | µM | = | 58.1 |
| C[C@H](C(=O)O)C(=O)NC(=O)N(Cc1ccccc1)N=O | TGI | µM | > | 100 |
| NC(N)=NCCCC(NCc1c2ccccc2nc2ccccc12)C(=O)O (stereo not given) | TGI | µM | = | 86.7 |
| OC(c1ccccc1Br)(c1ccccc1Br)C(F)(F)F | TGI | µM | = | 52.3 |
| CCCC(=O)CC(C)C(=O)C(=O)NC12CC3CC(CC(C3)C1)C2 (stereo not given) | TGI | µM | > | 100 |
| CC(C)Cc1ccc(C(C)/C=C2\CCC(CN(C)C)C2=O)cc1 (stereo not given) | TGI | µM | = | 51.4 |

---

// TGI lookup, one value per entry
# Test system: DMS 273 small cell lung
# Assay overview: NCI tumour cell line growth inhibition, 48 h
Assay readout: TGI

| Compound | Study system | Assay readout | Value measured |
| --- | --- | --- | --- |
| COc1ccc2c(C(=O)O)cc3ccccc3c2c1OC | DMS 273 small cell lung | TGI | 53.4 µM |
| O=C1c2ccccc2N2OC3(N4CCOCC4)CCCC3C12c1ccccc1 (centres undefined) | DMS 273 small cell lung | TGI | > 100 µM |
| Cn1c(=O)c2nc3sc4c(n3c2n(C)c1=O)C(=O)c1ccccc1C4=O | DMS 273 small cell lung | TGI | > 100 µM |
| O=C(c1ccccc1)[C@H]1Nc2ccc(Cl)cc2[C@H]2CCC[C@@H]12 | DMS 273 small cell lung | TGI | > 100 µM |
| Nc1nc(=S)c2c(ncn2CCO)[nH]1 | DMS 273 small cell lung | TGI | > 100 µM |
| C=CCNC(=O)C(C)C1CCC2(C)C=CC(=O)C(C)=C2C1O (centres undefined) | DMS 273 small cell lung | TGI | > 100 µM |
| CCOC(=O)C1(C)CCC(C(C(=O)O)C(=O)O)CC1=O (centres undefined) | DMS 273 small cell lung | TGI | > 100 µM |
| CC1NOC(=O)C1N=Nc1ccc(Cl)cc1Cl (centres undefined) | DMS 273 small cell lung | TGI | 56.8 µM |
| CCCC(=O)CC(C)C(=O)C(=O)NC12CC3CC(CC(C3)C1)C2 (centres undefined) | DMS 273 small cell lung | TGI | > 100 µM |
| CCc1cccc(CC)c1NC(=O)/C(Cl)=C(/Cl)C(=O)O | DMS 273 small cell lung | TGI | > 85.8 µM |
| C1CCC(N=C2N(C3CCCCC3)C(=NC3CCCCC3)N2C2CCCCC2)CC1 | DMS 273 small cell lung | TGI | > 100 µM |
| Cc1ccccc1C(CCCO)C(=O)O (centres undefined) | DMS 273 small cell lung | TGI | > 100 µM |
| O=C1NC(=O)C2C(=O)NC(=O)C1C2Cc1ccco1 (centres undefined) | DMS 273 small cell lung | TGI | > 100 µM |
| O=C(CCCC(=O)Nc1ccc(Cl)cc1Cl)CC(=O)c1ccc2ccccc2c1 | DMS 273 small cell lung | TGI | > 100 µM |
| N#CC1CC(c2ccccc2)Nc2cc(Cl)ccc2N1 (centres undefined) | DMS 273 small cell lung | TGI | > 100 µM |
| C[C@H](C(=O)O)C(=O)NC(=O)N(Cc1ccccc1)N=O | DMS 273 small cell lung | TGI | > 100 µM |
| c1ccc(C(c2ccccc2)c2ccccn2)cc1 | DMS 273 small cell lung | TGI | > 100 µM |
| N#Cc1ccc(Sc2nc3ccccc3[nH]2)cc1 | DMS 273 small cell lung | TGI | > 100 µM |
| Cc1nc2ccccc2c(=O)n1/N=C(\N=Nc1ccccc1Cl)c1ccccc1Cl | DMS 273 small cell lung | TGI | > 100 µM |
